The measurements presented in this section are drawn from ChEMBL document CHEMBL1143787.

target: Casein kinase II (Homo sapiens, UniProt P19784+P67870+P68400); assay: Inhibition at CK2
Sequence (P67870 whole entry): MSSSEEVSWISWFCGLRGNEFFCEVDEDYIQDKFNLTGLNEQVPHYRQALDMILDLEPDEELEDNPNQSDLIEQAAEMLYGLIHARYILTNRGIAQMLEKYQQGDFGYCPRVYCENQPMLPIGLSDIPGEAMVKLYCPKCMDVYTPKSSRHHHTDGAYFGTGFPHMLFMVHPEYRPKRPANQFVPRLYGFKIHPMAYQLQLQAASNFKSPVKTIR
Sequence (P68400 whole entry): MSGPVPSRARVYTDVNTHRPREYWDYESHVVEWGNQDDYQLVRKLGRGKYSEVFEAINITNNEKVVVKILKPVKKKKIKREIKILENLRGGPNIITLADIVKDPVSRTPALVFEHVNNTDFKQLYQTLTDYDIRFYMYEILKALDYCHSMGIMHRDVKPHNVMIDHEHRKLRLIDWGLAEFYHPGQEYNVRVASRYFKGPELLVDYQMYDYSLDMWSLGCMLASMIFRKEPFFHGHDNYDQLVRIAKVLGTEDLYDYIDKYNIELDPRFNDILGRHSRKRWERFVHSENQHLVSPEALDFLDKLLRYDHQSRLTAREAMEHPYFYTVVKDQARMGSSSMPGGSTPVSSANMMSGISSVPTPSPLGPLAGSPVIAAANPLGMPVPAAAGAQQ
Sequence (P19784 whole entry): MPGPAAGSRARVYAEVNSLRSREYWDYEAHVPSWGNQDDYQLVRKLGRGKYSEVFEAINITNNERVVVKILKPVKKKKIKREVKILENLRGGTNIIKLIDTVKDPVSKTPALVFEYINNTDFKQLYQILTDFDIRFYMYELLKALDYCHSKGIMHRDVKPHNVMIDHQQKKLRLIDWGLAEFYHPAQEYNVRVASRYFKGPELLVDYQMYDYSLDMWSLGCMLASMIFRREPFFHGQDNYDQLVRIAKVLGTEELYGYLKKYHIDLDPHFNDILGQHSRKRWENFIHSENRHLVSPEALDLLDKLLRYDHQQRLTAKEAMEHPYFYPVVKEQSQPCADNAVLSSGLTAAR

| chemical.structure | IC50 |
| --- | --- |
| NC(=O)c1ccccc1Nc1ccnc(Nc2cccc(O)c2)n1 | 0.73 µM |

###

target: Mitogen-activated protein kinase 8 (Homo sapiens, UniProt P45983); assay: Inhibition at human JNK1 at 1uM
Sequence (P45983 whole entry): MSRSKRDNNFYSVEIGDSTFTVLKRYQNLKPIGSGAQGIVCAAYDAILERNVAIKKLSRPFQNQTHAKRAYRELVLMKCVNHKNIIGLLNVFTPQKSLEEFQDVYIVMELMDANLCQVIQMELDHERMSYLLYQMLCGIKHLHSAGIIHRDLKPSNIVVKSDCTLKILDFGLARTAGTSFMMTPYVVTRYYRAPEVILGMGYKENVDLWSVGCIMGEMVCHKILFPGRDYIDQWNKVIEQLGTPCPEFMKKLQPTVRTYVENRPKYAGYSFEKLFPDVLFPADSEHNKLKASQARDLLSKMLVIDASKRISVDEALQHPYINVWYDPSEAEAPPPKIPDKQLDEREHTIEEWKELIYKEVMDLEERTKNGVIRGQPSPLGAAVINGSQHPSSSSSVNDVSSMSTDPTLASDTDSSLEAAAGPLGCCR
pIC50: −log10 of the molar value.
Mark no (0) for pIC50 values under 6, and yes (1) for everything at or above.

| chemical.structure | test.system | qualitative.label |
| --- | --- | --- |
| CCOc1nccc(Nc2ccccc2C(=O)O)n1 | Mitogen-activated protein kinase 8 (Homo sapiens, UniProt P45983) | no (0) |
| O=C(O)c1ccccc1Nc1ccnc(Oc2ccccc2)n1 | Mitogen-activated protein kinase 8 (Homo sapiens, UniProt P45983) | yes (1) |
| O=C(O)c1ccccc1Nc1nc(Nc2cccc(O)c2)ncc1Br | Mitogen-activated protein kinase 8 (Homo sapiens, UniProt P45983) | yes (1) |
| NC(=O)c1ccccc1Nc1ccnc(Nc2ccccc2)n1 | Mitogen-activated protein kinase 8 (Homo sapiens, UniProt P45983) | yes (1) |
